- Target of assay: HIV Protease (Human immunodeficiency virus type 1 group M subtype B, UniProt P04585)
- Experiment description: Inhibition of HIV Protease
- Format: biochemical
- Condition set: Table 2, Inhibition of HIV Protease
Endpoint name: Ki

Given the compound COc1ccc(S(=O)(=O)NC(C(=O)O)C2CC3Cc4cc(OC)ccc4C2O3)cc1 (stereo not shown) , write its reported Ki.
> 1000 nM

----------
What pKi was measured for each of the following?
- Target of assay: UniProtKB P04585
- Experiment description: Inhibition of HIV Protease
- Assay type: biochemical
- Condition set: Table 1, Inhibition of HIV Protease by compounds of formula drawing 46
pKi: −log10 of the molar value.

Provide pKi value for the following molecule: CC=CC1OC(c2ccccc2)CC1C(NS(=O)(=O)c1ccc(C)cc1)C(=O)O (stereo not drawn)
< 6.00

For the molecule C=CCC1OC(c2ccccc2)CC1C(NS(=O)(=O)c1ccc(C)cc1)C(=O)O (stereo not drawn) , give its measured pKi value.
< 6.00

Find the measured pKi of C=CCC1OC(c2ccccc2)CC1C(NS(=O)(=O)c1ccc(F)cc1)C(=O)O (stereo not drawn) and report it.
< 6.00
